molecular target: Peroxisome proliferator-activated receptor gamma (Homo sapiens, UniProt P37231); assay: Partial agonist activity at human PPARgamma-LBD expressed in HEK293T cells assessed as induction of receptor transactivation after 24 hrs by luciferase reporter gene assay
OBSERVABLE: pEC50
Please note pEC50 is a logarithmic value: minus log10 of concentration in mol/L. Answer with that number alone.

(Q) # input compound: O=C(Oc1ccc([N+](=O)[O-])cc1)c1cn(-c2ccccc2)nc1-c1ccccc1 ; wanted: its pEC50
(A) 5.64

###

Would you kindly list binding affinity for each of these compounds?
molecular target: Peroxisome proliferator-activated receptor gamma (Homo sapiens); assay: Displacement of fluormone PPAR-green from N-terminal His-tagged human PPARgamma-LBD assessed as logarithm unit binding affinity value at 10 uM after 2 hrs by fluorescence polarization assay
In your answer, state the number alone without any accompanying words.

(Q) # input compound: COc1ccc(-c2nn(-c3ccccc3)cc2C(=O)OCC(=O)c2ccc([N+](=O)[O-])cc2)cc1 ; wanted: its binding affinity
(A) 1.57

(Q) How about O=C(Oc1ccccc1)c1cn(-c2ccccc2)nc1-c1ccccc1 ?
(A) 1.63

(Q) How about O=C(COC(=O)c1cn(-c2ccccc2)nc1-c1ccc(Cl)cc1)c1ccccc1 ?
(A) 1.15

(Q) How about O=C(OCc1ccc([N+](=O)[O-])cc1)c1cn(-c2ccccc2)nc1-c1ccccc1 ?
(A) 1.38

(Q) How about COc1cc(C=O)ccc1OC(=O)c1cn(-c2ccccc2)nc1-c1ccc(OC)c([N+](=O)[O-])c1 ?
(A) 1.36

(Q) How about Fc1ccc(-c2nn(-c3ccccc3)cc2CNCc2ccccc2)cc1 ?
(A) 1.63

(Q) How about COc1ccc(-c2nn(-c3ccccc3)cc2C(=O)Oc2ccc(C)cc2)cc1OC ?
(A) 1.85

(Q) How about O=C(Oc1cccc2cccnc12)c1cn(-c2ccccc2)nc1-c1ccccc1 ?
(A) 1.52

(Q) How about CC(C)S(=O)(=O)c1ccc(COC(=O)c2cn(-c3ccccc3)nc2-c2ccccc2)cc1 ?
(A) 1.72

###

Target: Peroxisome proliferator-activated receptor gamma (Homo sapiens) (UniProt P37231)
Sequence (whole entry): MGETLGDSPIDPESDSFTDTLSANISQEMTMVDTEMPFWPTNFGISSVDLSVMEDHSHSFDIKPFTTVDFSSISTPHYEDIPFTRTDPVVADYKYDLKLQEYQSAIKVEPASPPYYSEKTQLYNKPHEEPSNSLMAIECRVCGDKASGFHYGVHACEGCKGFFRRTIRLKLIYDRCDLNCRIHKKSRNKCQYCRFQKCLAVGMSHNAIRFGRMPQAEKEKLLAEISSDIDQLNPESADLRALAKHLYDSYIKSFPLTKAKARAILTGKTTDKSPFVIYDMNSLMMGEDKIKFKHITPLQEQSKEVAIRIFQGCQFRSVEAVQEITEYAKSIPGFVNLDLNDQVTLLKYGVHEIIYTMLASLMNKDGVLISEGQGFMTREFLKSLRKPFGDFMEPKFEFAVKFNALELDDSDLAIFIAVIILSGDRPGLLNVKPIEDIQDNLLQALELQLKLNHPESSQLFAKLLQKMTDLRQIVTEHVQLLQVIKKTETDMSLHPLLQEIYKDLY
Assay: Displacement of fluormone PPAR-green from N-terminal His-tagged human PPARgamma-LBD assessed as logarithm unit binding affinity value at 10 uM after 2 hrs by fluorescence polarization assay
Would you kindly list binding affinity for each of these compounds?
In your answer, state the number alone without any accompanying words.

(Q) # input compound: COc1ccc(-c2nn(-c3ccccc3)cc2C(=O)OCC(=O)c2ccc(Br)cc2)cc1 ; wanted: its binding affinity
(A) 1.2

(Q) How about O=C(N/N=C/c1cn(-c2ccccc2)nc1-c1ccc(F)cc1)C(O)c1ccccc1 (centres undefined) ?
(A) 1.68

(Q) How about COc1ccc(-c2nn(-c3ccccc3)cc2C(=O)Oc2ccc(C=O)cc2OC)cc1OC ?
(A) 1.82

(Q) How about COc1cc(C=O)ccc1OC(=O)c1cn(-c2ccccc2)nc1-c1ccc(Br)cc1 ?
(A) 1.73

(Q) How about COc1cc(C=O)ccc1OC(=O)c1cn(-c2ccccc2)nc1-c1ccc(F)cc1 ?
(A) 1.82

(Q) How about O=C(COC(=O)c1cn(-c2ccccc2)nc1-c1ccccc1)c1ccc(Cl)c([N+](=O)[O-])c1 ?
(A) 1.98

(Q) How about COc1ccc(-c2nn(-c3ccccc3)cc2C(=O)Oc2ccccc2)cc1 ?
(A) 1.45

(Q) How about COc1ccc(-c2nn(-c3ccccc3)cc2C(=O)OCC(=O)c2ccc(Cl)cc2)cc1 ?
(A) 1.42

(Q) How about O=C(Oc1ccccc1)c1cn(-c2ccccc2)nc1-c1cccc([N+](=O)[O-])c1 ?
(A) 1.38

###

Target: Peroxisome proliferator-activated receptor gamma (Homo sapiens) (UniProt P37231)
Sequence (whole entry): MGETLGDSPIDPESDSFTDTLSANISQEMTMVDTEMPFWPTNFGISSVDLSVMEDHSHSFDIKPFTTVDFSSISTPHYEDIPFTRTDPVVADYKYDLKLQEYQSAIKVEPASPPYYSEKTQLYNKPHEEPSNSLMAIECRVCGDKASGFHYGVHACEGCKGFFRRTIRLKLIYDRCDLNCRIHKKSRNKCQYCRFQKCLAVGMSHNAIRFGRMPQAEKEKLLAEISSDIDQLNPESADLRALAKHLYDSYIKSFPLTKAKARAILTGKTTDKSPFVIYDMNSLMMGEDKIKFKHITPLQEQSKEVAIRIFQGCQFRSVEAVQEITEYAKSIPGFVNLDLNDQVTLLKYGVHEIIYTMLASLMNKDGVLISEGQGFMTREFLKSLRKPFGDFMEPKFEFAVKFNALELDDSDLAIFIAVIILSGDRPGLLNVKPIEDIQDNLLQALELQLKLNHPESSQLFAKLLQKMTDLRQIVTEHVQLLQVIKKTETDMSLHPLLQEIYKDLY
Test: Displacement of fluormone PPAR-green from N-terminal His-tagged human PPARgamma-LBD assessed as logarithm unit binding affinity value at 10 uM after 2 hrs by fluorescence polarization assay
Would you kindly list binding affinity for each of these molecules?
In your answer, state the number alone without any accompanying words.

(Q) # input molecule: O=C(Oc1ccccc1)c1cn(-c2ccccc2)nc1-c1ccc(Cl)cc1 ; wanted: its binding affinity
(A) 1.15

(Q) How about Cc1ccc(-c2nn(-c3ccccc3)cc2C(=O)Oc2ccccc2)cc1 ?
(A) 1.31

(Q) How about O=C(Oc1ccccc1)c1cn(-c2ccccc2)nc1-c1ccc(Br)cc1 ?
(A) 1.22

(Q) How about O=C(Oc1ccc([N+](=O)[O-])cc1)c1cn(-c2ccccc2)nc1-c1ccccc1 ?
(A) 1.9

(Q) How about COc1cc(C=O)ccc1OC(=O)c1cn(-c2ccccc2)nc1-c1ccccc1 ?
(A) 1.99

(Q) How about COc1cc(C=O)ccc1OC(=O)c1cn(-c2ccccc2)nc1-c1ccc(Cl)cc1 ?
(A) 1.81

(Q) How about COc1cc(C=O)ccc1OC(=O)c1cn(-c2ccccc2)nc1-c1ccc(C2COCCO2)cc1 (stereo not drawn) ?
(A) 1.5

(Q) How about CC(=O)Nc1ccc(OC(=O)c2cn(-c3ccccc3)nc2-c2ccccc2)cc1 ?
(A) 1.58

(Q) How about COc1cc(C=O)ccc1OC(=O)c1cn(-c2ccccc2)nc1-c1ccc(C)cc1 ?
(A) 1.81

(Q) How about Cc1ccc(-c2nn(-c3ccccc3)cc2C(=O)NCC(=O)c2ccccc2)cc1 ?
(A) 1.26

(Q) How about O=C(Oc1ccccc1)c1cn(-c2ccccc2)nc1-c1ccc(F)cc1 ?
(A) 1.55

(Q) How about CC(=O)c1ccc(OC(=O)c2cn(-c3ccccc3)nc2-c2ccccc2)cc1 ?
(A) 1.38

(Q) How about S=C(NCc1ccco1)NCc1cn(-c2ccccc2)nc1-c1ccccc1 ?
(A) 1.73

(Q) How about COc1cc(C=O)ccc1OC(=O)c1cn(-c2ccccc2)nc1-c1ccc([N+](=O)[O-])cc1 ?
(A) 1.35

(Q) How about O=C(N/N=C/c1cn(-c2ccccc2)nc1-c1ccccc1)c1ccc([N+](=O)[O-])cc1 ?
(A) 1.37

(Q) How about COc1ccc(-c2nn(-c3ccccc3)cc2C(=O)OCC(=O)c2ccc(C)c([N+](=O)[O-])c2)cc1 ?
(A) 1.05

(Q) How about COc1ccc(-c2nn(-c3ccccc3)cc2C(=O)OCC(=O)c2ccccc2Cl)cc1 ?
(A) 1.37

(Q) How about COc1ccc(-c2nn(-c3ccccc3)cc2C(=O)Oc2ccccc2)cc1OC ?
(A) 1.64
